- TEST_PROTOCOL: NCI Yeast Anticancer Drug Screen. Data for the sgs1 mgt1 strain (AID 161);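 note: 0% = growth of cultures given vehicle only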
- RUN_PARAMETERS: S. cerevisiae sgs1 mgt1 strain, at 50.0 µM
About 79,000 compounds went through this panel and 15% of them were active in at least one assay; those are over-represented in the sample as a whole. The source made the active and inactive calls. Cut-off read from the data, not from the text of the source: active = growth inhibition above about 70%; inactive = the rest. Where a SMILES comes first, the peptide text is derived from it. The star is where a group is joined. Boc = CC(C)(C)OC(=O)*; OBn = c1ccc(CO*)cc1; Bn = c1ccc(C*)cc1
API: response.call in yes (1) (active), no (0) (inactive)

Answered examples (3):
MOLECULE | CAT
O=C(CC1(O)C(=O)Nc2c(Cl)ccc(Cl)c21)c1ccc(Cl)cc1Cl (centres undefined) | yes (1)
N#CC(C#N)=C1CCC(CC2CCCCC2)CC1 (centres undefined) | yes (1)
CCc1nc(N)nc(N)c1-c1ccc(NCCN)c([N+](=O)[O-])c1 | yes (1)

Query: What did the test return for `O=C1C(=O)N(C(=O)c2ccc(Cl)c(Cl)c2)c2ccc(Cl)cc21` ?
Result: no (0)

Query: Would you kindly repeat that for `Cc1cccc(C[P+](c2ccccc2)(c2ccccc2)c2ccccc2)c1` ?
Result: yes (1)

Query: Would you kindly repeat that for CC(C)CC(NC(=O)C(Cc1ccccc1)NC(=O)C(COCc1ccccc1)NC(=O)OC(C)(C)C)C(=O)OCc1ccccc1 (stereo not drawn) (Boc-Ser(Bn)-Phe-Leu-OBn; configuration not given here) ?
Result: no (0)

Query: Would you kindly repeat that for `CCC/C(=N\NC(=S)N1CCCCCC1)c1ccccn1` ?
Result: yes (1)

Query: Would you kindly repeat that for `C[N+](C)([O-])CCOc1cc2c(c3ccccc13)-c1ccccc1C2=O` ?
Result: no (0)

Query: Would you kindly repeat that for CCOC(C)c1ccccc1 (centres undefined) ?
Result: no (0)

Query: Would you kindly repeat that for `COC(=O)c1nc(=S)[nH]c(C(=O)OC)c1C(=O)c1ccc2ccccc2c1` ?
Result: yes (1)

Query: Would you kindly repeat that for `CC(=O)[O-].CC(=O)[O-].CC(=O)[O-].CC(=O)[O-].Cn1c(=O)c2[nH]cnc2n(C)c1=O.Cn1c(=O)c2[nH]cnc2n(C)c1=O.[Rh+2].[Rh+2]` ?
Result: no (0)

Query: Would you kindly repeat that for `CCCCCCN(CCCCCC)CCC(=O)c1ccc2cc(Br)c3ccccc3c2c1` ?
Result: yes (1)

Query: Would you kindly repeat that for COC1/C=C/OC2(C)Oc3c(C)c(O)c4c(c3C2=O)C(=O)C=C(NC(=O)/C(C)=C\C=C\C(C)C(OC=O)C(C)C(O)C(C)C(OC(C)=O)C1C)C4=O (centres undefined) ?
Result: no (0)

Query: Would you kindly repeat that for `C1CSCCCSCCCSCCCSCCCSC1` ?
Result: no (0)
